Molecular target: T1, EBOV Mayinga strain GP ectodomain containing the glycan cap and mucin-like domain (Ebola virus, Mayinga strain, UniProt Q05320 33-650)
T1 chain: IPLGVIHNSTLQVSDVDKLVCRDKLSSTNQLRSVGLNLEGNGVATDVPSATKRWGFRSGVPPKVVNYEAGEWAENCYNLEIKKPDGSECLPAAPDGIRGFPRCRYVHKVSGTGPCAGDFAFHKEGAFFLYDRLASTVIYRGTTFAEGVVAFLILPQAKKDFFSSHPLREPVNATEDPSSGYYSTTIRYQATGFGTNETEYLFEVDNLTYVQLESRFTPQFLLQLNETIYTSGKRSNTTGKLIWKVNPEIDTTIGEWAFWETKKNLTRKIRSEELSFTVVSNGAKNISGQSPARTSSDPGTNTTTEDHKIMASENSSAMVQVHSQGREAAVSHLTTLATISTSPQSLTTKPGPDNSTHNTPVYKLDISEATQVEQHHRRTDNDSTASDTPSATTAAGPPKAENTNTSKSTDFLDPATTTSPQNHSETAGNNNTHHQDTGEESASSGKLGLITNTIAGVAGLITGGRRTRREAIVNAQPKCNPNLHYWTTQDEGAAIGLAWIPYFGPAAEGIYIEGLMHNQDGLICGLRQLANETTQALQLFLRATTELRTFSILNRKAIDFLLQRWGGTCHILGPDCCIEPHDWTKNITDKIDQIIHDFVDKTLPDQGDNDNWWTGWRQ
Experiment: ELISA
Metric Name: EC50

Answered cases to consult:
MR208 (antibody, V domains shown) VH: QVQLQESGPGLVKPSETLSLTCSVSGDSVSSGDYYWSWLRQPPGKGLEWIGYIYYSGATNYNPSLKSRVTISLDTSKNQFSLKLTSVTAADTAVYYCARERAGFLEWLFFEDWGQGT VL: DIQMTQSPSSLSASVGDRVTIFCRASQSIGTYLSWYQQKPGKAPKVLIYATSNLQSGVPSRFSGSGSGTEFTLTISSLQPEDFATYYCQQSRTFGQGTKVDMK    > 1000 mg/L
MR111 human monoclonal antibody (antibody, V domains shown) V domain 1: QVQLQESGPGLVKPSETLSLTCTVSGDSINNYYWSWIRQPPGKGLEWIGYIYYSNTNYNPSLKSRVTISVDTSKNQFSLRLSSVTAADTAVYYCARSPLFWFGEFFSSPDHFDFWGQGTL V domain 2: QSALTQPASVSGSPGQSITISCTGTSSDVGSYDLVSWYQQHPGKAPKLMLYEGTKRPSGVSNRFSGSKSGNTASLTISGLQAEDEADYYCCSYAGGSTLVFGGGTQVTVL    > 1000 mg/L

Asked: Form field: reported EC50 of MR191 human monoclonal antibody (antibody, V domains shown) VH: QLQLQESGPGLVKPSETLSLSCTVSGVSISDNSYYWGWIRQPPGKGLEWIGTISYSGNTYYNPSLKSRVSISGDTSKHQLSLKVSSVTAADTAVYYCARQRIVSGFVEWLSKFDYWGQGTLVTVSS VL: QSVLTQPPSVSGAPGQRVTISCTGSSSNIGAGFDVHWYQQLPGTAPKLLIYDNNNRPSGVPDRFSGSKSGTSASLAITGLQAEDEADYYCQSYDTSLSGPVVFGGGTKLTVL
Given back: > 1000 mg/L
